- Tested on: DU-145
- Assay Details: NCI tumour cell line growth inhibition, 48 h
Active and inactive are the calls of the source. Rule as the data show it: active = GI50 up to about 1.1 µM and inactive = higher.
Hi! Could you answer with just one of these? class 1 (active), class 0 (inactive)

Example entries begin here.
Nc1nc(N)nc(-c2cnc3ccccc3c2)n1; class 0
CC12CC3OC(=O)C1COC14OC5(C2C1=O)C(O)(CCC1C4CC2OC24CC=CC(=O)C14C)C(=O)OC35C (stereo not given); class 0
CC1(C)[C@@H]2C[C@H]1C(Cc1ccc(C[C@H]3c4cc(-c5ccccn5)ncc4[C@H]4C[C@@H]3C4(C)C)cc1)c1cc(-c3ccccn3)ncc12 (stereo not given in full); class 0
COc1ccc2c(c1)c1c3c(ccc4ncn2c43)N(CCN(C)C)CCN=1; class 1

Could you now look at the following molecule, please?
Assay outcome for NS(=O)(=O)c1nnc(NS(=O)(=O)c2ccc(Cl)cc2)s1 : what was it?
class 0

----------
Let's look at some compounds and their measured GI50.
- Test system: DU-145
- Assay Details: NCI tumour cell line growth inhibition, 48 h
Activity calls are given as the source filed them. No stated cut-off is given here; in the data, active = GI50 up to about 1.1 µM and inactive = higher.

The cases that follow already have their GI50 on record.
CCNc1ccc2c(c1)C(=O)N(OS(C)(=O)=O)C2=O; > 100 µM (inactive)
NC(=O)C1CCCN1Cc1ccc2c(c1)OCO2 (stereo not drawn); > 100 µM (inactive)

Here is the next item to consider.
Item under review: O=C(O)CSSCC(=O)O . Reported GI50?
> 100 µM (inactive)

----------
Let's look at some molecules and their measured GI50.
- Tested on: NCI-H522
- Assay Details: NCI tumour cell line growth inhibition, 48 h
Activity calls are given as the source filed them. No stated cut-off is given here; in the data, active = GI50 up to about 1.1 µM and inactive = higher.

The cases that follow already have their GI50 on record.
C=C(C=O)CCCC(C)[C@@H]1CCC23CC12CCC1[C@@]2(C)CCC(OC(C)=O)C(C)(C)C2CC(OC2OC(COC(C)=O)C(O)C(O)C2O)[C@]13C (stereo not given in full); 0.843 µM (active)
O=S1(=O)COc2ccccc2-c2ncncc21; > 100 µM (inactive)
CN(CCCNC(=O)c1cn(C)c2c1ccc1cc(Cl)ccc12)CCCNC(=O)c1cn(C)c2c1ccc1cc(Cl)ccc12; 1.75 µM (inactive)
COc1ccc(-c2cc(-c3ccccc3)nc(/N=C\c3ccccc3)n2)c(O)c1; 3.33 µM (inactive)
O=c1c2ccccc2nc(-c2ccccc2)n1NCC1(O)OCC(O)C(O)C1O (stereo not given); > 100 µM (inactive)

GI50 of COC(=O)[C@@H]1C(=O)O[C@@H](c2ccc(OC)c(OC)c2OC)[C@@H]1C(=O)OC.COC(=O)[C@H]1C(=O)O[C@@H](c2ccc(OC)c(OC)c2OC)[C@@H]1C(=O)OC on NCI-H522?
> 100 µM (inactive)

Try this molecule too: C/C=C1/C(=O)O[C@]23C=C[C@@H]4C(C(=O)OC)=CO[C@H](O[C@@H]12)[C@@H]43
0.353 µM (active)

Try this molecule too: CCN(CC)CCCNc1ccc2nnn3c4ccc(O)cc4c(=O)c1c23
3.05 µM (inactive)

Try this molecule too: CCCCN(c1ccccc1)c1ncnc2c1cnn2C
19.9 µM (inactive)

Try this molecule too: CN/C(=N\n1cnnc1)OC
> 100 µM (inactive)

----------
- System: IGROV-1
- Assay Details: NCI tumour cell line growth inhibition, 48 h
The source made the active and inactive calls. Rule as the data show it: active = GI50 up to about 1.1 µM and inactive = higher.
Hi! Could you answer with just one of these? active, inactive

Assay outcome for CC12CC3OC(=O)C1COC14OC5(C2C1=O)C(O)(CCC1C4CC2OC24CC=CC(=O)C14C)C(=O)OC35C (centres undefined) : what was it?
inactive

Try this molecule too: CCOC(=O)C(CCN1CCC2(CC1)C(=O)N(C)CN2c1ccccc1)C(=O)OCC
inactive

Try this molecule too: COc1ccc(CC(=O)N2CCC3(C)CC(=O)CC=C23)cc1OC (centres undefined)
inactive

Data provenance is ChEMBL document CHEMBL1201862.
